Just for reference, the supplement of paper PMC8728848 is where these values come from.

- Measured Target: GlcNAc(a1-4)Gal(b1-4)GlcNAc(b1-3)Gal(b1-4)[Fuc(a1-3)]GlcNAc(b1-3)Gal(b1-4)[Fuc(a1-3)]GlcNAc
- Assay Explanation: glycan array binding signal (z-score within array); higher = stronger binding
- Test Conditions: glycan notation: IUPAC condensed, linker removed
About 410 targets per protein were measured; listed, in parts, are those with the strongest signals and a random draw of the rest.
Outcome label depends on glycan array binding signal (z-score) relative to 2: at/above gives Satisfied, below gives Not satisfied.

**Query** Given CLEC9a (Mus musculus), Q8BRU4 (protein) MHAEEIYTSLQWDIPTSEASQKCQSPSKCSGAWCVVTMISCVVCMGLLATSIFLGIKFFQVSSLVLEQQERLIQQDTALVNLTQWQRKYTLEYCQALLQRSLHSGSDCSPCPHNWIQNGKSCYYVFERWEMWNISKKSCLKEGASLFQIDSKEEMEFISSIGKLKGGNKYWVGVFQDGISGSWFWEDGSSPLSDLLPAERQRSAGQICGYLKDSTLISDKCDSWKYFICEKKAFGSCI , state whether its glycan array binding signal (z-score) is at least 2.
**Result** Not satisfied

**Query** Does TIM1 (protein) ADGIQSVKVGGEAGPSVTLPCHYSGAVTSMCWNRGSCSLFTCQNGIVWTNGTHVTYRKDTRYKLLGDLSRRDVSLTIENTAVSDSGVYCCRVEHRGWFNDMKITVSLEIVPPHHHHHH have a reported glycan array binding signal (z-score) of at least 2?
**Result** Satisfied

**Query** Evaluate Intelectin-1a (Mus musculus) (protein) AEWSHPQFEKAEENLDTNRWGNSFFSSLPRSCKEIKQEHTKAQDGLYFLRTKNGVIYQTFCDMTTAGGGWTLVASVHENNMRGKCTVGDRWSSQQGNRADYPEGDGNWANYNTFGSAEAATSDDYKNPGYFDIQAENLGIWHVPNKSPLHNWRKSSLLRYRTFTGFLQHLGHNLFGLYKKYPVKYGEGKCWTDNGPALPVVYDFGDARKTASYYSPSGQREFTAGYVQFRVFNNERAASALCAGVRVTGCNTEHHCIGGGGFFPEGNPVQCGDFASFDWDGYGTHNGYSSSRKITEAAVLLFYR : glycan array binding signal (z-score) at minimum 2?
**Result** Satisfied

**Query** Reported glycan array binding signal (z-score) at or above 2? CLEC5A (Homo sapiens), Q9NY25 (protein) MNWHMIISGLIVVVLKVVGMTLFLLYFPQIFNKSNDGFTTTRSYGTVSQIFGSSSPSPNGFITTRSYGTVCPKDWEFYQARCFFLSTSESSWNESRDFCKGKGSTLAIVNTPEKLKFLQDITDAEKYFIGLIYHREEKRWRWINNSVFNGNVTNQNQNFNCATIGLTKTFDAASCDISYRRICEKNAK
**Result** Not satisfied

**Query** // inclusive: glycan array binding signal (z-score) at least 2? input: CALR truncated at D342 (Homo sapiens) (protein) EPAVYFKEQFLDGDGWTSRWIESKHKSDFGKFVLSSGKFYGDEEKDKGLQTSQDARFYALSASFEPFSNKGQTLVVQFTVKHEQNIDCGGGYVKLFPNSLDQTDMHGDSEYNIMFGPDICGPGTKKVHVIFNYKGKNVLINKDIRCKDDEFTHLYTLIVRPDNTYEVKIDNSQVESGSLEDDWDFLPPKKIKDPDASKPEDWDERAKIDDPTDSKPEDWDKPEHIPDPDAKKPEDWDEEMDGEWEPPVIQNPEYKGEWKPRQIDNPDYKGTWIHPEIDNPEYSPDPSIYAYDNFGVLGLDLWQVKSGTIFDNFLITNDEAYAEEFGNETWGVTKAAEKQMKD
**Result** Satisfied
